# ASSAY_DETAILS: In vitro anti-plasmodial activity against Plasmodium falciparum dihydrofolate reductase A16V/S108T (T9/94RC17) mutant
List of IC50 values.
OBSERVED_PROPERTY: IC50

1) NC1=NC(c2cccc(Oc3ccc(Cl)cc3)c2)N(c2cccc(Cl)c2)C(N)=N1 (centres undefined)	390 nM
2) CCCOc1ccc(C2N=C(N)N=C(N)N2c2cccc(Cl)c2)cc1 (centres undefined)	4 nM
3) NC1=NC(c2ccccc2)N(c2cccc(Cl)c2)C(N)=N1 (centres undefined)	20 nM
4) CCCCCCCC1N=C(N)N=C(N)N1c1cccc(Cl)c1 (centres undefined)	4 nM
